Field: z-score. Provide a value for each of the compounds that follow.
- measurement_target: NADPH oxidase 5 (Homo sapiens) (UniProt Q96PH1)
- Sequence (Q96PH1 whole entry, looked up): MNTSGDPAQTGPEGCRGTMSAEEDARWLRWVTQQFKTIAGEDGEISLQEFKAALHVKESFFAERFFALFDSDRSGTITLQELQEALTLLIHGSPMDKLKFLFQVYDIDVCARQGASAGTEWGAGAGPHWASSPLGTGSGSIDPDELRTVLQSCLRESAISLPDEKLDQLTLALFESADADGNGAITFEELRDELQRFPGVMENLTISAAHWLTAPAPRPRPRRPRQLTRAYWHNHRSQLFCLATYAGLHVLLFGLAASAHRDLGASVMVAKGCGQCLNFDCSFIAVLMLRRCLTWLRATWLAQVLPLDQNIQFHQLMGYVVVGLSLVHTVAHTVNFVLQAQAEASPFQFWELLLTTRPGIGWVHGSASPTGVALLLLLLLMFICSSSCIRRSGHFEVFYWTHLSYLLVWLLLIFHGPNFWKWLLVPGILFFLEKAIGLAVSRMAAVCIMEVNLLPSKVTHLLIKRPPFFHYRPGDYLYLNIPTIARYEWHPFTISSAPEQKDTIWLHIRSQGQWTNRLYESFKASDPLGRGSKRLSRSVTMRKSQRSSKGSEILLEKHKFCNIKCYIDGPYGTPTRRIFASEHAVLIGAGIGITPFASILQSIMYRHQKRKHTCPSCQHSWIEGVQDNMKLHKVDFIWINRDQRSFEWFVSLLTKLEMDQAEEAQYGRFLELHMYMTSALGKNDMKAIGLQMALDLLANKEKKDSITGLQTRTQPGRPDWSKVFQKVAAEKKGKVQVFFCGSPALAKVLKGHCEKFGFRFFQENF
- assay_notes: NOX5-dependent H2O2 signal modulators, primary screen, NOX inhibitor project, cell-based, HEK293-NOX5, Amplex Red fluorescence (AID 1161)
- condition_parameters: HEK293-NOX5, ionomycin, 45 min, higher = more signal
API doc: respond with a numeric literal and nothing else, no unit.

## Task Request the reported z-score associated with CO[C@H]1O[C@H](CO)[C@@H](OC(=O)Nc2ccccc2)[C@H](OC(=O)Nc2ccccc2-c2ccccc2)[C@@H]1OC(=O)Nc1ccccc1-c1ccccc1
## Result 0.306

## Task Request the reported z-score associated with COc1ccc([Si](C)(C)[C@@H]2[C@@H](CC(=O)N3CCC[C@H]3CO)O[C@]3(C(=O)N(Cc4ccc(N5CCC5=O)cc4)c4ccccc43)[C@H]2C)cc1
## Result 4.86

## Task Request the reported z-score associated with [N-]=[N+]=NCc1ccccc1C[C@]1(C(=O)NCc2ccccc2)N=C(c2ccc(OCCCO)cc2)O[C@H]1c1ccccc1
## Result 0.0397

## Task Request the reported z-score associated with CC(C)NC(=O)[C@@H]1c2ccccc2C(=O)N(Cc2cc(F)cc(C(F)(F)F)c2)[C@H]1c1ccc(CO)cc1
## Result 0.949

## Task Request the reported z-score associated with C=C(COC)C(=O)CC[C@H](OC(=O)c1ccccc1-c1ccccc1C(=O)O)c1ccccc1OCCO
## Result -1.57

## Task Request the reported z-score associated with CC(C)C(=C=CC[C@@H](O)c1ccc(CO)o1)CCO
## Result 1.49

## Task Request the reported z-score associated with COCCCN1C(=O)[C@@]2(Cc3ccccc31)c1ccccc1C(=O)N(Cc1ccccc1Cl)[C@H]2c1ccc(CO)cc1
## Result 1.65

====

- assay_notes: non-specific cell cytotoxicity, dose response, cytotoxicity control for PAX8 inhibitor project, plate reader, dry powder samples (AID 743021)
- condition_parameters: cell line, non-specific cytotoxicity counter-screen; series mostly up to 35 µM
Entries with a potency or affinity are not part of this list. Records with an inconclusive call do not appear. Activity calls are given as the source filed them. The rule behind the calls is not given here.
quantity_kind: activity change, negative = cytotoxicity

Study these solved cases before continuing.
## Task Request the reported activity change, negative = cytotoxicity associated with CC(C)NC(=O)N(C)C[C@H]1OCCCC[C@H](C)Oc2ccc(NC(=O)Nc3ccc(C(F)(F)F)cc3)cc2C(=O)N([C@H](C)CO)C[C@@H]1C
## Result inactive

## Task Request the reported activity change, negative = cytotoxicity associated with COc1ccc(C[C@H](N)C(=O)N[C@H]2[C@@H](O)[C@H](n3cnc4c(N(C)C)ncnc43)O[C@@H]2CO)cc1
## Result inactive

## Task Request the reported activity change, negative = cytotoxicity associated with Cc1ccc(-c2csc(NC3OC(=O)c4ccccc43)n2)cc1 (centres undefined)
## Result inactive

## Task Request the reported activity change, negative = cytotoxicity associated with C[C@H](CO)N1C[C@H](C)[C@@H](CN(C)Cc2ccc(Oc3ccccc3)cc2)Oc2ccc(NS(=O)(=O)c3ccc(Cl)cc3)cc2CC1=O
## Result inactive

## Task Request the reported activity change, negative = cytotoxicity associated with O=C(CCCN1C(=O)/C(=C/c2cccc(Br)c2)SC1=S)Nc1cccnc1
## Result inactive

## Task Request the reported activity change, negative = cytotoxicity associated with Cc1cc(Nc2ccc3c(c2)OCCO3)c2ccccc2n1
## Result inactive

## Task Request the reported activity change, negative = cytotoxicity associated with O=C(C[C@H]1C[C@@H]2c3cc(NS(=O)(=O)c4ccc(F)cc4)ccc3O[C@@H]2[C@@H](CO)O1)NCc1ccc(Oc2ccccc2)cc1
## Result inactive

## Task Request the reported activity change, negative = cytotoxicity associated with O=C(Nc1ccc(F)cc1)N1CC(=O)N2[C@@H](CO)[C@H](c3ccc(-c4ccc(F)cc4)cc3)[C@@H]2C1
## Result inactive

Further cases:
## Task Request the reported activity change, negative = cytotoxicity associated with CC[C@]1(O)C[C@@H]2CN(CCc3c([nH]c4ccccc34)[C@@](C(=O)OC)(c3cc4c(cc3OC)N(C)[C@H]3[C@@](O)(C(=O)OC)[C@H](OC(C)=O)[C@]5(CC)C=CCN6CC[C@]43[C@@H]65)C2)C1
## Result inactive

## Task Request the reported activity change, negative = cytotoxicity associated with C[C@@H]1CN([C@@H](C)CO)C(=O)c2cc(NC(=O)Nc3ccc(C(F)(F)F)cc3)ccc2O[C@@H](C)CCCCO[C@@H]1CN(C)Cc1ccccc1
## Result inactive

## Task Request the reported activity change, negative = cytotoxicity associated with C[C@H](CO)N1C[C@H](C)[C@H](CN(C)C(=O)c2ccccc2)OCCCC[C@H](C)Oc2ccc(NC(=O)Nc3ccc(C(F)(F)F)cc3)cc2C1=O
## Result inactive

## Task Request the reported activity change, negative = cytotoxicity associated with CC(=O)c1sc(NC(=O)CCS(=O)(=O)c2ccc(Cl)cc2)nc1C
## Result inactive

## Task Request the reported activity change, negative = cytotoxicity associated with C[C@H]1CN([C@@H](C)CO)C(=O)c2ccccc2-c2ccccc2CO[C@H]1CN(C)S(=O)(=O)c1ccc(C(F)(F)F)cc1
## Result inactive

## Task Request the reported activity change, negative = cytotoxicity associated with CC[C@@H]1CCC[C@@H](O)[C@@H](C)C(=O)O[C@H](C)[C@@H](C)C/C=C(C)/C(OC)=C\C(=O)N(C)C([C@@H](C)CC)C(=O)N(C)[C@@H](C(C)C)C(=O)N(C)[C@@H](COC)C(=O)N2CCC[C@H]2C(=O)N(C)[C@@H](C(C)C)C(=O)N2CCC[C@H]2C(=O)O1 (some centres undefined)
## Result inactive

====

- measurement_target: Fibroblast growth factor 2 (Homo sapiens) (UniProt P09038)
- Sequence (P09038 whole entry, looked up): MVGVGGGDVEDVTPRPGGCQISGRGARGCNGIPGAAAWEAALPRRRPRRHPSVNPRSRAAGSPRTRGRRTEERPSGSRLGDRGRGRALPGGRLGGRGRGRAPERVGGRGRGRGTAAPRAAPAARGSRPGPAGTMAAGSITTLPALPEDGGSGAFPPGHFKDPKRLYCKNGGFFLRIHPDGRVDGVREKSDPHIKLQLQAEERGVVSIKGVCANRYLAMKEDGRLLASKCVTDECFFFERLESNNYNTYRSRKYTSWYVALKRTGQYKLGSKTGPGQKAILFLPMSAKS
- assay_notes: FGF2 binders on small-molecule microarrays, primary screen, biochemical, small-molecule microarray, 635/667 nm fluorescence (AID 1133)
- condition_parameters: small-molecule microarray binding, FGF2, fluorescence 635/667; higher = more signal
quantity_kind: composite z-score
API doc: respond with a numeric literal and nothing else, no unit.

## Task Test system Fibroblast growth factor 2 (Homo sapiens) (UniProt P09038); read-out composite z-score; what value for C=CCNC(=O)[C@H]1[C@@H]2C(=O)O[C@@H](c3ccccc3)[C@@H](c3ccccc3)N2[C@@H](c2ccccc2OCCO)[C@]12C(=O)N(C(=O)OCCOC)c1ccc(C#CCCO)cc12 ?
## Result 1.72

## Task Test system Fibroblast growth factor 2 (Homo sapiens) (UniProt P09038); read-out composite z-score; what value for C=CCOC(=O)[C@H]1[C@@H]2C(=O)O[C@@H](c3ccccc3)[C@@H](c3ccccc3)N2[C@@H](c2ccc(OCCOC(=O)[C@H]3C[C@H]4C(=O)N5CCC[C@H]5C(=O)N4[C@H]3c3cccc(OCCO)c3)cc2)[C@]12C(=O)Nc1ccccc12 ?
## Result 1.57

## Task Test system Fibroblast growth factor 2 (Homo sapiens) (UniProt P09038); read-out composite z-score; what value for O=C1N(CCS(=O)(=O)c2ccccc2)Cc2ccccc2[C@@H]2OC(c3ccc(OCCCO)cc3)=N[C@]12Cc1ccccc1 ?
## Result 1.68

## Task Test system Fibroblast growth factor 2 (Homo sapiens) (UniProt P09038); read-out composite z-score; what value for C=C1C=C(Br)C2(OCCCO2)[C@H]2OC12 (stereo partly drawn) ?
## Result 0.245

## Task Test system Fibroblast growth factor 2 (Homo sapiens) (UniProt P09038); read-out composite z-score; what value for CCCCCCC#C[Si](O[C@H](c1ccccc1)c1cn(Cc2ccccc2)nn1)(C(C)C)C(C)C ?
## Result 0.594

## Task Test system Fibroblast growth factor 2 (Homo sapiens) (UniProt P09038); read-out composite z-score; what value for CO[C@H]1O[C@H](CO)[C@@H](OC(=O)Nc2ccccc2)[C@H](OC(=O)Nc2ccccc2-c2ccccc2)[C@H]1OC(=O)Nc1ccccc1-c1ccccc1 ?
## Result 0.292

## Task Test system Fibroblast growth factor 2 (Homo sapiens) (UniProt P09038); read-out composite z-score; what value for C=CCN1C(=O)[C@@]2(O[C@@H](CCn3cc(CCO)nn3)[C@H]([Si](C)(C)c3ccc(OC)cc3)[C@H]2C)c2cc(N3C(=O)c4cccc5cccc3c45)ccc21 ?
## Result 0.973

## Task Test system Fibroblast growth factor 2 (Homo sapiens) (UniProt P09038); read-out composite z-score; what value for CC(C)C[C@@H]1NC(=O)[C@@]23C(=O)N[C@@H](Cc4ccccc4)C2[C@H](C)[C@@]2(C)O[C@H]2C3/C=C/CC/C=C/CNC(=O)[C@@H](C)NC1=O (stereo partly drawn) ?
## Result 1.12

## Task Test system Fibroblast growth factor 2 (Homo sapiens) (UniProt P09038); read-out composite z-score; what value for CC(C)(C)OC(=O)CC[C@@]1(C(=O)NCc2ccccc2)N=C(c2ccc(OCCCO)cc2)O[C@@H]1c1ccccc1CN=[N+]=[N-] ?
## Result 0.915

## Task Test system Fibroblast growth factor 2 (Homo sapiens) (UniProt P09038); read-out composite z-score; what value for CC1CC/C=C\[C@H]2OC34C=CCN(C(C)C)C(=O)[C@H]3N(C(CO)C(C)C)C(=O)[C@@H]4C2C(=O)O1 (stereo partly drawn) ?
## Result -0.294

## Task Test system Fibroblast growth factor 2 (Homo sapiens) (UniProt P09038); read-out composite z-score; what value for CCCNC(=O)[C@@]1(Sc2ccc(C)cc2)CC(=O)N(Cc2cc(C(F)(F)F)cc(C(F)(F)F)c2)[C@@H]1c1ccc(CO)cc1I ?
## Result -1.22

## Task Test system Fibroblast growth factor 2 (Homo sapiens) (UniProt P09038); read-out composite z-score; what value for O=C1O[C@@H](c2ccccc2)[C@@H](c2ccccc2)N2[C@@H](c3ccc(OCCO)cc3)[C@]3(C(=O)Nc4ccc(C#CC5(O)CCCCCC5)cc43)[C@@H](C(=O)NC[C@H](O)c3ccccc3)[C@H]12 ?
## Result 0.505

## Task Test system Fibroblast growth factor 2 (Homo sapiens) (UniProt P09038); read-out composite z-score; what value for COCCOC(=O)N1C(=O)[C@@]2(c3cc(C#CCCO)ccc31)[C@H](c1ccccc1OCCO)N1[C@H](c3ccccc3)[C@H](c3ccccc3)OC(=O)[C@H]1[C@@H]2C(=O)NC[C@H](O)c1ccccc1 ?
## Result 1.7
